B1: RHOBTB1 (parent)
chain: TFGDHHKDRRFAYGRSDVVVLCFS

variants of: B1; assay: protein stability index of a GFP-peptide fusion (GPS, HEK-293T) (PSI 1-6); higher = more stable; conditions: c terminus: a fixed tail appended;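 also: lentivirally expressed fusions sorted by FACS into six bins by GFP to DsRed ratio, PSI derived from sequencing read proportions per bin multiplied by bin number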
Kindly state protein stability index for each of the entries shown.
Numbers only.

Mutation Label	Property Name	Numeric Readout
V18G	protein stability index	1.68

Provide protein stability index values for the following items, in order.
1. F11H
2. C22P

// result
2.37
2.21

# batch: return protein stability index for each of the 3 variants below
1. V18Q
2. D17T
3. L21G

// result
1. 1.72
2. 2.67
3. 2.23

Lab note: each variant below needs its protein stability index filled in.
1. D8E
2. D8Q
3. L21E
4. L21K
5. H6L
6. V18A
7. T1L
8. K7G

// result
2.77
4.86
2.79
2.34
3.15
1.74
2.59
3.09

Hey, quick one: what's protein stability index for each of these?
1. D17P
2. K7W
3. D8L
4. L21C
5. K7M

// result
[3.44, 3.28, 4.19, 1.85, 3.46]

Give protein stability index for each listed item.
1. S16I
2. G14S
3. D4N

// result
1.57
1.75
2.15
